Data origin: patent US20020072530A1

Exercise: state measured IC50 for each of the compounds provided.
- study system: thrombin (Homo sapiens)
- protocol: Thrombin amidolytic assay (chromogenic substrate Chromozym TH)
- Assay type: biochemical
- condition: table of Examples 6-18; unit inferred; read-out: IIA (IC50)
Give the value, in units of µM, as a plain number.

QUERY: Quote thrombin (Homo sapiens) IC50 for entry CC(=N)N1CCC(Oc2ccc3nc(C(C)C)n(Cc4cccc(-c5cccc(C(=N)N)c5)c4)c3c2)CC1 .
RESULT: 9.61

QUERY: Quote thrombin (Homo sapiens) IC50 for entry CCn1c(Cn2c(C(C)C)nc3cc(OC4CCN(C(C)=N)CC4)ccc32)cc2ccc(C(=N)N)cc21 .
RESULT: 0.805

QUERY: Quote thrombin (Homo sapiens) IC50 for entry CC(=N)N1CCC(Oc2ccc3c(c2)nc(C(C)C)n3Cc2cccc(-c3cccc(C(=N)N)c3)c2)CC1 .
RESULT: 26.3

QUERY: Quote thrombin (Homo sapiens) IC50 for entry CC(C)c1nc2cc(OC3CCN(C)CC3)ccc2n1Cc1cccc(-c2cccc(C(=N)N)c2)c1 .
RESULT: 29

QUERY: Quote thrombin (Homo sapiens) IC50 for entry CCn1c(Cn2c(C(C)C)nc3ccc(OC4CCN(C(C)=N)CC4)cc32)cc2ccc(C(=N)N)cc21 .
RESULT: 0.0164

QUERY: Quote thrombin (Homo sapiens) IC50 for entry CCOC(=O)c1nc2cc(OC3CCN(C(C)=N)CC3)ccc2n1Cc1cc2ccc(C(=N)N)cc2n1CC .
RESULT: 1.36

---

Exercise: state measured IC50 for each of the compounds provided.
- study system: factor Xa (Homo sapiens)
- protocol: Factor Xa amidolytic assay (chromogenic substrate S-2765)
- Format: biochemical
- condition: table of Examples 6-18; unit inferred; read-out: XA (IC50)
Give the value, in units of nM, as a plain number.

QUERY: Supply recorded IC50 for CC(=N)N1CCC(Oc2ccc3nc(C(C)C)n(Cc4cccc(-c5cccc(C(=N)N)c5)c4)c3c2)CC1 [Example 9] here.
RESULT: 658

QUERY: Supply recorded IC50 for CC(=N)N1CCC(Oc2ccc3nc(C(C)C)n(Cc4ccc5ccc(C(=N)N)cc5c4)c3c2)CC1 [Example 11] here.
RESULT: 10.4

QUERY: Supply recorded IC50 for CCn1c(Cn2c(C(C)C)nc3cc(OC4CCN(C(C)=N)CC4)ccc32)cc2ccc(C(=N)N)cc21 [Example 7] here.
RESULT: 1.2

QUERY: Supply recorded IC50 for CCn1c(Cn2c(C(C)C)nc3ccc(OC4CCN(C(C)=N)CC4)cc32)cc2ccc(C(=N)N)cc21 [Example 6] here.
RESULT: 148

QUERY: Supply recorded IC50 for CC(C)c1nc2cc(OC3CCN(C)CC3)ccc2n1Cc1cccc(-c2cccc(C(=N)N)c2)c1 [Example 8] here.
RESULT: 32.2

QUERY: Supply recorded IC50 for CC(=N)N1CCC(Oc2ccc3c(c2)nc(C(C)C)n3Cc2cccc(-c3cccc(C(=N)N)c3)c2)CC1 [Example 10] here.
RESULT: 5.73

QUERY: Supply recorded IC50 for CCOC(=O)c1nc2cc(OC3CCN(C(C)=N)CC3)ccc2n1Cc1cc2ccc(C(=N)N)cc2n1CC [Example 18] here.
RESULT: 18

---

- study system: prothrombinase complex (Homo sapiens)
- Sequence (P00742 235-488 limits assumed): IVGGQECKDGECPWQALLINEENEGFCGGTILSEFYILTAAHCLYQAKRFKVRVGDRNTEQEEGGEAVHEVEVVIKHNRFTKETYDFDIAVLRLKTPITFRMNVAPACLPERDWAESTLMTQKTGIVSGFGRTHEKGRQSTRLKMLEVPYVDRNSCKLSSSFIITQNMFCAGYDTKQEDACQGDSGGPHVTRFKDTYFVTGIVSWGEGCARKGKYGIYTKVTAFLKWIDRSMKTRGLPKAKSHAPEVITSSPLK
- Sequence (P00742 41-179 limits assumed): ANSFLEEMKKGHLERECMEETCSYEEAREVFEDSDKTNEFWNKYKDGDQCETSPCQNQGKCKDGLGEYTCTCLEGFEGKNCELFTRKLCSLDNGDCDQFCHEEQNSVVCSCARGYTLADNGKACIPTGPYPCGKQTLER
- Sequence (P12259 29-737 partner limits assumed): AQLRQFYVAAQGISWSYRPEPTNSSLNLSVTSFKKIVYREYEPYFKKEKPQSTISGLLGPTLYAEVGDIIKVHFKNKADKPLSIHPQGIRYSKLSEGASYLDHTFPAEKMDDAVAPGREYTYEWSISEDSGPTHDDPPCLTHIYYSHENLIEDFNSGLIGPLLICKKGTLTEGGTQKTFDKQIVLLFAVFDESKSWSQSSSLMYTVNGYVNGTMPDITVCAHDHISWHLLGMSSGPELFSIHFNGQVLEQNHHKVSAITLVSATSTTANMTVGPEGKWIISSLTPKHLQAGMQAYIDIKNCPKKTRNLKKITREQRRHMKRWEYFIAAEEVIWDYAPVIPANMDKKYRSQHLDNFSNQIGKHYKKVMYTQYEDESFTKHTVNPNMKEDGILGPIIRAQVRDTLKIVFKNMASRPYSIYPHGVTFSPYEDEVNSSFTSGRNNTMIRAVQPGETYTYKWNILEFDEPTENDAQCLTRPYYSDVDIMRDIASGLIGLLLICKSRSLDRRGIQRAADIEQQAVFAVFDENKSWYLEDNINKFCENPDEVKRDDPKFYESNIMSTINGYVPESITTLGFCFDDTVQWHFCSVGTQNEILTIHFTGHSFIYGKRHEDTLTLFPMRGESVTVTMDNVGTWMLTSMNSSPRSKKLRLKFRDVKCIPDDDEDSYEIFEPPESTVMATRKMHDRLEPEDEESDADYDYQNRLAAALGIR
- Sequence (P12259 1574-2224 partner limits assumed): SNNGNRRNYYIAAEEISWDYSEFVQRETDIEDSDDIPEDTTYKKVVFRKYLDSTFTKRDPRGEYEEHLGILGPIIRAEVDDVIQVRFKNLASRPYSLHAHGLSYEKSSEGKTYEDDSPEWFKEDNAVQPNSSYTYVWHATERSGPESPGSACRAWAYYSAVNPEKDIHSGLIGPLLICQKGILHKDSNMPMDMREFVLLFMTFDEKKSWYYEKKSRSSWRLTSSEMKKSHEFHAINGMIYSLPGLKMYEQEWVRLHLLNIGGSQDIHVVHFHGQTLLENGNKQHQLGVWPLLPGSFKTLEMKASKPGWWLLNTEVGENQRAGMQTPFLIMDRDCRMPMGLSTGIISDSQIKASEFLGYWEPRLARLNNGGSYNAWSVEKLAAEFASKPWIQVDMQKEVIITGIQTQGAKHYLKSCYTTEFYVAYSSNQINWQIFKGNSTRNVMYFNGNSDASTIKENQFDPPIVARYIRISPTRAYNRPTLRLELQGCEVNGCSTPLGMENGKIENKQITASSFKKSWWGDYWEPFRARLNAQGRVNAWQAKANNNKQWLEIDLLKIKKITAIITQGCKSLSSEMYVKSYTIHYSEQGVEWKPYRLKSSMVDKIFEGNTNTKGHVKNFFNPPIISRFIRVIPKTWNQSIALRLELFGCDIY
- protocol: Prothrombinase inhibition assay in a plasma free system
- condition: table of Examples 6-18; unit inferred; read-out: IIASE (IC50)
pIC50: −log10 of the molar value.
pIC50 below 7 gives -1; pIC50 at or above it gives 1.

QUERY: Quick check, pIC50 >= 7? CC(=N)N1CCC(Oc2ccc3nc(C(C)C)n(Cc4cccc(-c5cccc(C(=N)N)c5)c4)c3c2)CC1
RESULT: -1

QUERY: Quick check, pIC50 >= 7? CC(=N)N1CCC(Oc2ccc3nc(C(C)C)n(Cc4ccc5ccc(C(=N)N)cc5c4)c3c2)CC1
RESULT: 1

QUERY: Quick check, pIC50 >= 7? CC(C)c1nc2cc(OC3CCN(C)CC3)ccc2n1Cc1cccc(-c2cccc(C(=N)N)c2)c1
RESULT: -1

QUERY: Quick check, pIC50 >= 7? CCn1c(Cn2c(C(C)C)nc3cc(OC4CCN(C(C)=N)CC4)ccc32)cc2ccc(C(=N)N)cc21
RESULT: 1

QUERY: Quick check, pIC50 >= 7? CC(=N)N1CCC(Oc2ccc3c(c2)nc(C(C)C)n3Cc2cccc(-c3cccc(C(=N)N)c3)c2)CC1
RESULT: 1

QUERY: Quick check, pIC50 >= 7? CCOC(=O)c1nc2cc(OC3CCN(C(C)=N)CC3)ccc2n1Cc1cc2ccc(C(=N)N)cc2n1CC
RESULT: -1

---

- study system: factor Xa (Homo sapiens)
- protocol: Factor Xa amidolytic assay (chromogenic substrate S-2765)
- Type: biochemical
- condition: Table 5; read-out: Inhibitory Activity (IC50) Factor Xa
result type: pIC50
Entry type: numeric. Quantity: pIC50, the -log10 of concentration in molar units.

QUERY: Supply recorded pIC50 for CC(=N)N1CCC(Oc2ccc3c(c2)nc(C(C)C)n3Cc2cccc(-c3cccc(C(=N)N)c3)c2)CC1 [Example 10] here.
RESULT: 8.24

QUERY: Supply recorded pIC50 for CCn1c(Cn2c(C(C)C)nc3cc(OC4CCN(C(C)=N)CC4)ccc32)cc2ccc(C(=N)N)cc21 [Example 7] here.
RESULT: 8.92

QUERY: Supply recorded pIC50 for CCOC(=O)c1nc2cc(OC3CCN(C(C)=N)CC3)ccc2n1Cc1cc2ccc(C(=N)N)cc2n1CC [Example 18] here.
RESULT: 7.74
